meta.source: patent US9994578B2

test system: Kunming mice; experiment: Anesthetic efficacy on mice (disappearance of righting reflex); assay type: in vivo; conditions: 9 mg/kg caudal vein injection, 0.9 mg/ml, 6 per group, disappearance of righting reflex

MOLECULE	Number of anesthetized animals
COC(=O)CC[C@@H]1N=C(c2ccccn2)c2cc(Br)ccc2-n2c(C)cnc21 [remimazolam, reference compound]	6/6
Cc1ccc(S(=O)(=O)O)cc1.Cc1cnc2n1-c1ccc(Br)cc1C(c1ccccn1)=N[C@H]2CCC(=O)OC1CCCCC1	0/6
CCOC(=O)CC[C@@H]1N=C(c2ccccn2)c2cc(Br)ccc2-n2c(C)cnc21	6/6
CCCOC(=O)CC[C@@H]1N=C(c2ccccn2)c2cc(Br)ccc2-n2c(C)cnc21.Cc1ccc(S(=O)(=O)O)cc1	0/6
Cc1ccc(S(=O)(=O)O)cc1.Cc1cnc2n1-c1ccc(Br)cc1C(c1ccccn1)=N[C@H]2CCC(=O)OC(C)C	6/6
Cc1ccc(S(=O)(=O)O)cc1.Cc1cnc2n1-c1ccc(Br)cc1C(c1ccccn1)=N[C@H]2CCC(=O)OCCC(C)C	0/6

====

molecular target: GABAA receptor benzodiazepines site; assay: In vitro affinity with GABAA receptor benzodiazepines site (3H-flunitrazepam displacement, brain membrane); assay type: binding, SD rat; details: calculated by logit method
ENDPOINT: IC50

COMPOUND	ASSAY_RESULT
COC(=O)CC[C@@H]1N=C(c2ccccn2)c2cc(Br)ccc2-n2c(C)cnc21 [remimazolam, reference compound]	0.0158 µM
